test system: MT4; experiment: Selectivity index of CD50 to ED50 of MT-4 cells; assay type: functional
// values below are reported Selectivity index
Give the value as a plain number.

Examples with answers:
[N-]=[N+]=N[C@@H]1CC(n2cc(Cl)c(N)nc2=O)O[C@@H]1CO (stereo partly drawn)	97
Nc1ccn([C@H]2CC[C@@H](CO)O2)c(=O)n1	120
[N-]=[N+]=N[C@H]1C[C@H](n2ccc(=O)[nH]c2=O)O[C@@H]1CO	90

Any idea what its Selectivity index is? The compound is Cc1cn([C@H]2C=C[C@@H](CO)O2)c(=O)[nH]c1=O
380

// same read-out, input: Nc1ccn(C2C[C@@H](F)[C@@H](CO)O2)c(=O)n1 (stereo partly drawn)
1.6

// same read-out, input: [N-]=[N+]=N[C@H]1C[C@H](n2ccc(N)nc2=O)O[C@@H]1CO
21

// same read-out, input: O=c1[nH]c(=O)n([C@H]2C[C@H](F)[C@@H](CO)O2)cc1Cl
1408

// same read-out, input: Cc1cn([C@H]2C[C@H](N=[N+]=[N-])[C@@H](CO)O2)c(=O)[nH]c1=O
1603

// same read-out, input: [N-]=[N+]=N[C@@H]1CC(n2cc(Cl)c(=O)[nH]c2=O)O[C@@H]1CO (stereo partly drawn)
296

// same read-out, input: Nc1nc(=O)n([C@H]2C=C[C@@H](CO)O2)cc1Cl
8.4

// same read-out, input: O=c1ccn(C2C[C@@H](F)[C@@H](CO)O2)c(=O)[nH]1 (stereo partly drawn)
18

// same read-out, input: Nc1ccn([C@H]2C=C[C@@H](CO)O2)c(=O)n1
61
